In this section, each of the compounds is paired with its reported IC50.
SYSTEM: CCK Receptor (Pancreas) (Rattus norvegicus)
Construct: The whole pancreas was dissected free of fat tissue and was homogenized; from tissue; host or cells: rat whole pancreas, homogenate membranes
Sequence (P30551 whole entry): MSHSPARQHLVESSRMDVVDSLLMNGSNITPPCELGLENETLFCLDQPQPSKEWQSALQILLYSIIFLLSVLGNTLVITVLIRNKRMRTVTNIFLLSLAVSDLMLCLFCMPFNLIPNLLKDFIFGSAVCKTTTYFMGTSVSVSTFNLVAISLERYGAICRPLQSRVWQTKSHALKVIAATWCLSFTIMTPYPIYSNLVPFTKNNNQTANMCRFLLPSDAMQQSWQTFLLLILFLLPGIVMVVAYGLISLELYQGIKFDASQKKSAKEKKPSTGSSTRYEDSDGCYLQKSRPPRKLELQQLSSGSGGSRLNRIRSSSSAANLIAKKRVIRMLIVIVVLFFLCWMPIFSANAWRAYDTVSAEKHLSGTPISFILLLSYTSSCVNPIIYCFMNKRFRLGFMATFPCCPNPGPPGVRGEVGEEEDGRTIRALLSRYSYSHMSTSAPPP
RUN DESCRIPTION: biochemical
Type: binding, Male Sprague-Dawley rats
PROPERTY LABEL: IC50 (µM)

1) CN1C(=O)[C@H](NC(=O)Nc2cccc(-c3nnn(C)n3)c2)N=C(c2ccccc2)c2ccccc21: 1.6
2) CN1C(=O)[C@H](NC(=O)Nc2ccc3[nH]nnc3c2)N=C(c2ccccc2)c2ccccc21: 1.5
3) CCN1C(=O)C(NC(=O)Nc2cccc(-c3nnn[nH]3)c2)N=C(c2ccccc2)c2ccccc21 (centres unmarked): 0.029
4) CN1C(=O)[C@H](NC(=O)Nc2cccc(C(=O)NS(C)(=O)=O)c2)N=C(c2ccccc2)c2ccccc21: 1.5

====

SYSTEM: CCK Receptor (Brain) (Cavia porcellus)
Construct: the cortex was removed and homogenized in 25 mL ice-cold 0.32M sucrose; from tissue; host or cells: guinea pig cerebral cortex, P2 membrane pellet
RUN DESCRIPTION: CCK Receptor Binding (Brain), inhibition of 125I-CCK-8 binding
Parameters: species or system Male Hartley guinea pigs
STATED CONDITIONS: guinea pig cortex membranes, 125I-CCK-8 50 pM, 25° C., 2 hours; read-out: IC50, 125I-CCK Brain
pIC50: −log10 of the molar value.
In this section, each of the molecules is paired with its reported pIC50.
PROPERTY LABEL: pIC50

1) O=C(Nc1cccc(-c2noc(=O)[nH]2)c1)N[C@@H]1N=C(c2ccccc2)c2ccccc2N(CC2CC2)C1=O [Example 35]: 10.05
2) CN1C(=O)[C@H](NC(=O)Nc2cccc(C(=O)NS(C)(=O)=O)c2)N=C(c2ccccc2)c2ccccc21 [Example 23]: 7.92
3) CC(=O)NC(=O)c1cccc(NC(=O)N[C@@H]2N=C(c3ccccc3)c3ccccc3N(C)C2=O)c1 [Example 22]: 7.26
4) CC(C)CN1C(=O)C(NC(=O)Nc2cccc(-c3nnn[nH]3)c2)N=C(c2ccccc2F)c2ccccc21 (racemic) [Example 21]: 8.85
5) CN1C(=O)[C@H](NC(=O)Nc2cccc(-c3n[nH]c(=O)o3)c2)N=C(c2ccccc2)c2ccccc21 [Example 37]: 8.44
6) CCN1C(=O)C(NC(=O)Nc2cccc(-c3nnn[nH]3)c2)N=C(c2ccccc2)c2ccccc21 (stereo not shown) [Example 3]: 8.80
7) CN1C(=O)[C@H](NC(=O)Nc2ccc3[nH]nnc3c2)N=C(c2ccccc2)c2ccccc21 [Example 13]: 7.72

====

In this section, each of the compounds is paired with its reported pIC50.
SYSTEM: CCK Receptor (Brain) (Cavia porcellus, UniProt H0VZC5)
Construct: the cortex was removed and homogenized in 25 mL ice-cold 0.32M sucrose; from tissue; host or cells: guinea pig cerebral cortex, P2 membrane pellet
Sequence (H0VZC5 1-426): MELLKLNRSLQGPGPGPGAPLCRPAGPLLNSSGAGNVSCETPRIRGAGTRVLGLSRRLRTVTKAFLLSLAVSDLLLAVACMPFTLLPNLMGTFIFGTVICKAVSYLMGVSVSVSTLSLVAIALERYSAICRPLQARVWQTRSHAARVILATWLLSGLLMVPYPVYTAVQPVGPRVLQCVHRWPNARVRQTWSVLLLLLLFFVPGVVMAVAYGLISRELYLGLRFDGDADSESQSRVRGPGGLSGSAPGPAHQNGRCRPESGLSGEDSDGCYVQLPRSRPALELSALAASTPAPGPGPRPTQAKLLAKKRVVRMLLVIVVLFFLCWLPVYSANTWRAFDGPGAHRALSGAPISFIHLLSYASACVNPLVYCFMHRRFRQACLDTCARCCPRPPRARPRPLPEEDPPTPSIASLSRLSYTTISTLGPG
RUN DESCRIPTION: CCK Receptor Binding (Brain), inhibition of 125I-CCK-8 binding
Parameters: species or system Male Hartley guinea pigs
STATED CONDITIONS: guinea pig cortex membranes, 125I-CCK-8 50 pM, 25° C., 2 hours; read-out: IC50, 125I-CCK Brain
Procedure: 2. CCK Receptor Binding (Brain) CCK-8 sulphated was radiolabelled and the binding was performed according to the description for the pancreas method with minor modifications. Male Hartley guinea pigs (300-500 g) were sacrificed by decapitation and the cortex was removed and homogenized in 25 mL ice-cold 0.32M sucrose. […] The radioactivity on the filters was then counted with a LKB gamma counter. […]
pIC50: −log10 of the molar value.
PROPERTY LABEL: pIC50

1. CC[C@H](C)CN1C(=O)[C@H](NC(=O)Nc2cccc(-c3nnn[nH]3)c2)N=C(c2ccccc2)c2ccccc21: 9.60
2. CN1C(=O)[C@H](NC(=O)Nc2cccc(C3=NOS(=O)N3)c2)N=C(c2ccccc2)c2ccccc21 (some centres unmarked): 7.71
3. CCCN1C(=O)[C@H](NC(=O)Nc2cccc(-c3nnn[nH]3)c2)N=C(c2ccccc2)c2ccccc21: 10.17
4. CN1C(=O)[C@H](NC(=O)Nc2cccc(S(=O)(=O)NC(=O)C(C)(C)C)c2)N=C(c2ccccc2)c2ccccc21: 7.92
5. CN1C(=O)[C@H](NC(=O)Nc2cccc(C(=O)NS(=O)(=O)C(C)(C)C)c2)N=C(c2ccccc2)c2ccccc21: 9.42
6. O=C(Nc1cccc(-c2nnn[nH]2)c1)N[C@@H]1N=C(c2ccccc2)c2ccccc2N(CC2CC2)C1=O: 9.40
7. COP(=O)(Nc1cccc(NC(=O)N[C@@H]2N=C(c3ccccc3)c3ccccc3N(C)C2=O)c1)OC: 7.00
8. CN1C(=O)[C@H](NC(=O)Nc2cccc(S(N)(=O)=O)c2)N=C(c2ccccc2)c2ccccc21: 7.13
9. CN1C(=O)[C@H](NC(=O)Nc2cccc(C#N)c2)N=C(c2ccccc2)c2ccccc21: 7.57
10. CC(C)CN1C(=O)[C@H](NC(=O)Nc2cccc(-c3nnn[nH]3)c2)N=C(c2ccccc2)c2ccccc21: 10.00
11. CC(C)NC(=O)NC(=O)c1cccc(NC(=O)N[C@@H]2N=C(c3ccccc3)c3ccccc3N(C)C2=O)c1: 6.39
12. CN1C(=O)[C@H](NC(=O)Nc2cccc(C(N)=O)c2)N=C(c2ccccc2)c2ccccc21: 7.55
13. CN1C(=O)[C@H](NC(=O)Nc2cccc(-c3nnn(C)n3)c2)N=C(c2ccccc2)c2ccccc21: 7.68
14. CC(=O)NS(=O)(=O)c1cccc(NC(=O)N[C@@H]2N=C(c3ccccc3)c3ccccc3N(CC3CC3)C2=O)c1: 9.26
15. CN1C(=O)[C@H](NC(=O)Nc2cccc(S(=O)(=O)NC(=O)C3CC3(C)C)c2)N=C(c2ccccc2)c2ccccc21 (some centres unmarked): 7.96
16. CN1C(=O)[C@H](NC(=O)Nc2cccc(Cc3nnn[nH]3)c2)N=C(c2ccccc2)c2ccccc21: 8.32
17. CC(=O)NS(=O)(=O)c1cccc(NC(=O)N[C@@H]2N=C(c3ccccc3)c3ccccc3N(C)C2=O)c1: 8.41
18. CN1C(=O)[C@H](NC(=O)Nc2cccc(NS(N)(=O)=O)c2)N=C(c2ccccc2)c2ccccc21: 7.49
19. CN1C(=O)[C@H](NC(=O)Nc2cccc(S(=O)(=O)NC(=O)NC(C)(C)C)c2)N=C(c2ccccc2)c2ccccc21: 7.85
20. COc1ccc(NC(=O)N[C@@H]2N=C(c3ccccc3)c3ccccc3N(C)C2=O)cn1: 7.32
21. CN1C(=O)[C@H](NC(=O)Nc2cccc(N)c2)N=C(c2ccccc2)c2ccccc21: 7.48
22. CC(C)S(=O)(=O)NC(=O)c1cccc(NC(=O)N[C@@H]2N=C(c3ccccc3)c3ccccc3N(C)C2=O)c1: 8.12
23. CN1C(=O)[C@H](NC(=O)Nc2cccc(B(O)O)c2)N=C(c2ccccc2)c2ccccc21: 8.02
